Field: EC50. Provide a value for each of the binders that follow.
- tested.system: T1, HGREM1-His (ACRO) (human, UniProt O60565 25-184)
- T1 construct: Lys25-Asp184 of NP_037504 with C-terminal polyhistidine tag (ACRO GR1-H52H3); they are put here; also called hGREM1 (ACRO); human gremlin (ACRO)
- T1 sequence: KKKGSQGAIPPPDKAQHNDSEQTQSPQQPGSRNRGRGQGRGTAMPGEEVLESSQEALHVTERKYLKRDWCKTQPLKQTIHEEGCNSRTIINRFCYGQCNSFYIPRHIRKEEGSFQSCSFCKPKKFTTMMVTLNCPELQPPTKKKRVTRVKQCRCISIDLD
- assay.protocol: ELISA, binding to hGremlin-his
One number for each entry, in µg/mL.

Record excerpt, results attached:
Hu14E3_HaLa (antibody, IgG1, V domains shown, humanized) VH: QVQLVQSGSELKKPGASVKVSCKASGYTFTTYGMAWMRQAPGQGLEWMGWINTLSGEPTYADDFKGRFVFSLDTSVSTAYLQISSLKAEDTAVYYCAREPMDYWGQGTMVTVSS VL: DVVMTQSPLSLPVTLGQPASISCKSSQSLLDSDGKTYLSWLQQRPGQSPRRLIYLVSKLDSGVPDRFSGSGSGTDFTLKISRVEAEDVGVYYCWQGAHFPLTFGQGTKLEIK = 0.0069
Hu22F1_HbLb (antibody, V domains shown) VH: QVQLVQSGAEVKKPGASVKVSCKASGYSFTDYYMNWVRQAPGQGLEWMGDINPKDGDSGYSHKFKGRVTMTVDKSTSTVYMELSSLRSEDTAVYYCASGFTTVVARGDYWGQGTTVTVSS VL: DVVMTQSPLSLPVTLGQPASISCKSSQSLLDSDGKTYLNWLQQRPGQSPRRLIYLVSKLDSGFPDRFSGSGSGTDFTLKISRVEAEDVGVYYCWQGTHFPYTFGGGTKVEIK = 0.094
Hu22F1_HaLa (antibody, V domains shown, humanized 22F1 variant) VH: QVQLVQSGAEVKKPGASVKVSCKASGYSFTDYYMNWVRQAPGQGLEWMGDINPKDGDSGYSHKFKGRVTMTRDTSTSTVYMELSSLRSEDTAVYYCASGFTTVVARGDYWGQGTTVTVSS VL: DVVMTQSPLSLPVTLGQPASISCKSSQSLLDSDGKTYLNWLQQRPGQSPRRLIYLVSKLDSGVPDRFSGSGSGTDFTLKISRVEAEDVGVYYCWQGTHFPYTFGGGTKVEIK = 1.17

Look up EC50 for the entries below, preserving their order.
1. Hu14E3_HcLa (antibody, IgG1, V domains shown, humanized) VH: QIQLVQSGSELKKPGASVKVSCKASGSTFTTYGMAWMKQAPGQGLTWMGWINTLSGEPTYADDFKGRFAFSLDTSVSTAYLQISSLKAEDTAVYYCAREPMDYWGQGTMVTVSS VL: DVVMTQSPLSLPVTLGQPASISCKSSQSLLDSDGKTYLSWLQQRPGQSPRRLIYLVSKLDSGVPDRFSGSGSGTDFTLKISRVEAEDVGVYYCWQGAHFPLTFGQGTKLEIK
2. Hu22F1_HcLb (antibody, V domains shown) VH: QAQLVQSGAEVKKPGASVKVSCKASGYSFTDYYMNWVRQAPGQGLEWMGDINPKDGDSGYSHKFKGRVTLTVDKSTSTVYMELRSLRSEDTAVYYCASGFTTVVARGDYWGQGTTVTVSS VL: DVVMTQSPLSLPVTLGQPASISCKSSQSLLDSDGKTYLNWLQQRPGQSPRRLIYLVSKLDSGFPDRFSGSGSGTDFTLKISRVEAEDVGVYYCWQGTHFPYTFGGGTKVEIK
3. Hu22F1_HdLa (antibody, V domains shown) VH: QAQLVQSGAEVKKPGASVKVSCKASGYSFTDYYMNWLRQAPGQGLEWIGDINPKDGDSGYSHKFKGRATLTVDKSTSTVYMELRSLRSEDTAVYYCASGFTTVVARGDYWGQGTTVTVSS VL: DVVMTQSPLSLPVTLGQPASISCKSSQSLLDSDGKTYLNWLQQRPGQSPRRLIYLVSKLDSGVPDRFSGSGSGTDFTLKISRVEAEDVGVYYCWQGTHFPYTFGGGTKVEIK
4. Hu14E3_HcLb (antibody, IgG1, V domains shown, humanized) VH: QIQLVQSGSELKKPGASVKVSCKASGSTFTTYGMAWMKQAPGQGLTWMGWINTLSGEPTYADDFKGRFAFSLDTSVSTAYLQISSLKAEDTAVYYCAREPMDYWGQGTMVTVSS VL: DVVMTQSPLSLPVTLGQPASISCKSSQSLLDSDGKTYLSWLQQRPGQSPRRLISLVSKLDSGVPDRFSGSGSGTDFTLKISRVEAEDVGVYYCWQGAHFPLTFGQGTKLEIK
5. Hu14E3_HbLb (antibody, IgG1, V domains shown, humanized) VH: QIQLVQSGSELKKPGASVKVSCKASGYTFTTYGMAWMRQAPGQGLEWMGWINTLSGEPTYADDFKGRFAFSLDTSVSTAYLQISSLKAEDTAVYYCAREPMDYWGQGTMVTVSS VL: DVVMTQSPLSLPVTLGQPASISCKSSQSLLDSDGKTYLSWLQQRPGQSPRRLISLVSKLDSGVPDRFSGSGSGTDFTLKISRVEAEDVGVYYCWQGAHFPLTFGQGTKLEIK

Found:
[0.0066, 0.0435, 0.0167, 0.0061, 0.0062]

Look up EC50 for the entries below, preserving their order.
1. Hu14E3_HaLb (antibody, IgG1, V domains shown, humanized) VH: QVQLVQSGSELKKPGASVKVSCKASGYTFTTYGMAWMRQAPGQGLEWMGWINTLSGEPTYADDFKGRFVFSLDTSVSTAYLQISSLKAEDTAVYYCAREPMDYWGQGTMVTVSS VL: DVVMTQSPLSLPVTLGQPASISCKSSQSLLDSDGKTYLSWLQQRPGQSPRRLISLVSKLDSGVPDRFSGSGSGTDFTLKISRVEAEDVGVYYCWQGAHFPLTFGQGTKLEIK
2. Hu22F1_HaLb (antibody, V domains shown) VH: QVQLVQSGAEVKKPGASVKVSCKASGYSFTDYYMNWVRQAPGQGLEWMGDINPKDGDSGYSHKFKGRVTMTRDTSTSTVYMELSSLRSEDTAVYYCASGFTTVVARGDYWGQGTTVTVSS VL: DVVMTQSPLSLPVTLGQPASISCKSSQSLLDSDGKTYLNWLQQRPGQSPRRLIYLVSKLDSGFPDRFSGSGSGTDFTLKISRVEAEDVGVYYCWQGTHFPYTFGGGTKVEIK

Found:
1: 0.0056; 2: 0.117

Values from patent US20240294622A1
